# credit: patent US20210324028A1

# maps each entry to its Kd
Target: T1, human IL-2Rβ (human, UniProt P14784 27-240, limits assumed)
T1 construct: also called hIL-2Rβ; IL-2 receptor beta
T1 sequence (looked up): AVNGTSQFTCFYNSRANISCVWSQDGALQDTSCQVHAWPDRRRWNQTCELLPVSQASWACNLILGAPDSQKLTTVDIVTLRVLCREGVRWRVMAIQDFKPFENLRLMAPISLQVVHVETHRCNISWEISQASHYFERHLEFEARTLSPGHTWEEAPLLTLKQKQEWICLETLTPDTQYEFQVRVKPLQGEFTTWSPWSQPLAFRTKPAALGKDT
Test: SPR, steady state

hIL-15 V49R/D30S (ligand) NWVNVISDLKKIEDLIQSMHIDATLYTESSVHPSCKVTAMKCFLLELQRISLESGDASIHDTVENLIILANNSLSSNGNVTESGCKECEELEEKNIKEFLQSFVHIVQMFINTGGGGSGHHHHHHHHGGGLNDIFEAQKIEWHE | 249 nM
hIL-15 V49R/K10S (ligand) NWVNVISDLSKIEDLIQSMHIDATLYTESDVHPSCKVTAMKCFLLELQRISLESGDASIHDTVENLIILANNSLSSNGNVTESGCKECEELEEKNIKEFLQSFVHIVQMFINTGGGGSGHHHHHHHHGGGLNDIFEAQKIEWHE | 496 nM
hIL-15 V49R/S29N (ligand) NWVNVISDLKKIEDLIQSMHIDATLYTENDVHPSCKVTAMKCFLLELQRISLESGDASIHDTVENLIILANNSLSSNGNVTESGCKECEELEEKNIKEFLQSFVHIVQMFINTGGGGSGHHHHHHHHGGGLNDIFEAQKIEWHE | 322 nM
hIL-15 V49R/D30E (ligand) NWVNVISDLKKIEDLIQSMHIDATLYTESEVHPSCKVTAMKCFLLELQRISLESGDASIHDTVENLIILANNSLSSNGNVTESGCKECEELEEKNIKEFLQSFVHIVQMFINTGGGGSGHHHHHHHHGGGLNDIFEAQKIEWHE | 165 nM
hIL-15 V49R/D30W (ligand) NWVNVISDLKKIEDLIQSMHIDATLYTESWVHPSCKVTAMKCFLLELQRISLESGDASIHDTVENLIILANNSLSSNGNVTESGCKECEELEEKNIKEFLQSFVHIVQMFINTGGGGSGHHHHHHHHGGGLNDIFEAQKIEWHE | 321 nM
hIL-15 V49R/S7G (ligand) NWVNVIGDLKKIEDLIQSMHIDATLYTESDVHPSCKVTAMKCFLLELQRISLESGDASIHDTVENLIILANNSLSSNGNVTESGCKECEELEEKNIKEFLQSFVHIVQMFINTGGGGSGHHHHHHHHGGGLNDIFEAQKIEWHE | > 500 nM

According to the records, this binder hIL-15 V49R/K10D (ligand) NWVNVISDLDKIEDLIQSMHIDATLYTESDVHPSCKVTAMKCFLLELQRISLESGDASIHDTVENLIILANNSLSSNGNVTESGCKECEELEEKNIKEFLQSFVHIVQMFINTGGGGSGHHHHHHHHGGGLNDIFEAQKIEWHE displays Kd of > 500 nM
